assay-name: Plasma pharmacokinetics after single oral doses (SAD cohorts)
Assay type: in vivo, human
conditions-used: human, plasma; single oral dose 40 mg; median (range); n = 6; read-out: Tmax
measurement-label: Tmax
Lab note: write values as number then unit, every time.

Query (compound): CCc1nc(-c2ccc3c(c2)CC[C@H]3NC(=O)c2cnn(C)c2)no1 [Aficamten] ; field requested: Tmax
1 h

====

assay-name: Plasma pharmacokinetics after multiple oral doses (MAD cohorts)
Format: in vivo, human
conditions-used: human, plasma, oral, 10 mg, Day 1; 10 mg qd × 14 d; geometric mean (geometric CV%); n = 6; read-out: AUC24
Source text: The MAD cohorts also used a randomized, double-blind, placebo-controlled, sequential design. […] For all study groups, blood samples for PK assessment were obtained predose, up to 12 times daily on day 1, and then at regular intervals throughout the study (see Supplemental Appendix for details). Standard noncompartmental methods were used to calculate PK parameters using Phoenix WinNonlin, version 7.0; actual sample collection times were used. […]
measurement-label: AUC (ng·h/mL)
One number for each entry, in ng·h/mL.

Fill blank: measured AUC of the compound CCc1nc(-c2ccc3c(c2)CC[C@H]3NC(=O)c2cnn(C)c2)no1 [Aficamten] is ____.
547

====

assay-name: Plasma pharmacokinetics after multiple oral doses (MAD cohorts)
Type: in vivo, human
conditions-used: human, plasma, oral, 7.5 mg, Day 17; 7.5 mg qd × 17 d; geometric mean (geometric CV%); n = 6; read-out: Cmax,ss
measurement-label: Cmax
Form entry: enter the amount, then its unit.

I have this molecule here, CCc1nc(-c2ccc3c(c2)CC[C@H]3NC(=O)c2cnn(C)c2)no1 [Aficamten] , and I need its recorded Cmax.
148 ng/mL

====

assay-name: Plasma pharmacokinetics after single oral doses (SAD cohorts)
Assay type: in vivo, human
conditions-used: human, plasma; single oral dose 50 mg; mean ± SD; n = 9; read-out: Vz/F
measurement-label: Vd/F (L)
Answers are plain numbers, in L.

Any idea what its Vd/F is? The compound is CCc1nc(-c2ccc3c(c2)CC[C@H]3NC(=O)c2cnn(C)c2)no1
431

====

assay-name: Plasma pharmacokinetics after single oral doses (SAD cohorts)
Assay type: in vivo, human
conditions-used: human, plasma; single oral dose 40 mg; geometric mean (geometric CV%); n = 5
measurement-label: AUC(0-inf) (ng·h/mL)
Answers are plain numbers, in ng·h/mL.

AUC(0-inf) for CCc1nc(-c2ccc3c(c2)CC[C@H]3NC(=O)c2cnn(C)c2)no1 ?
11900

====

assay-name: Plasma pharmacokinetics after single oral doses (SAD cohorts)
Format: in vivo, human
conditions-used: human, plasma; single oral dose 75 mg; n = 1; read-out: AUC24
measurement-label: AUC (ng·h/mL)
One number for each entry, in ng·h/mL.

Value lookup for AUC; key = CCc1nc(-c2ccc3c(c2)CC[C@H]3NC(=O)c2cnn(C)c2)no1 [Aficamten]
4560

====

assay-name: Plasma pharmacokinetics in the CYP2D6 poor metabolizer cohort
Type: in vivo, human
conditions-used: human, plasma, oral; CYP2D6 poor metabolizers, single 10 mg; arithmetic mean ± SD; n = 7; read-out: Vz/F
measurement-label: Vd/F

So what's the measured Vd/F for this one? CCc1nc(-c2ccc3c(c2)CC[C@H]3NC(=O)c2cnn(C)c2)no1
506 L

====

assay-name: Plasma pharmacokinetics after multiple oral doses (MAD cohorts)
Format: in vivo, human
conditions-used: human, plasma, oral, 5 mg, Day 14; 5 mg qd × 14 d; arithmetic mean ± SD; n = 6; read-out: t½ (converted)
measurement-label: half-life (h)
Give bare numbers, in h.

So what does the record say about half-life for CCc1nc(-c2ccc3c(c2)CC[C@H]3NC(=O)c2cnn(C)c2)no1 [Aficamten] ?
86.4

====

assay-name: Plasma pharmacokinetics after single oral doses (SAD cohorts)
Type: in vivo, human
conditions-used: human, plasma, po, 50 mg, single oral dose 50 mg; mean ± SD; n = 9; read-out: t1/2 (converted)
measurement-label: half-life (h)
Answers are plain numbers, in h.

Which measured half-life value corresponds to CCc1nc(-c2ccc3c(c2)CC[C@H]3NC(=O)c2cnn(C)c2)no1 ?
80.4

====

assay-name: Plasma pharmacokinetics after multiple oral doses (MAD cohorts)
Format: in vivo, human
conditions-used: human, plasma, oral, 10 mg, Day 14; 10 mg qd × 14 d; arithmetic mean ± SD; n = 6; read-out: t½ (converted)
measurement-label: half-life (h)
One number for each entry, in h.

Looking for the measured half-life of CCc1nc(-c2ccc3c(c2)CC[C@H]3NC(=O)c2cnn(C)c2)no1 , can you help?
79.8

====

assay-name: Plasma pharmacokinetics after single oral doses (SAD cohorts)
Assay type: in vivo, human
conditions-used: human, plasma; single oral dose 50 mg; median (range); n = 11; read-out: Tmax
Protocol: The SAD portion of the study used a randomized, double-blind, placebo-controlled, sequential, escalating dose design, in which participants received single ascending oral doses of the study drug. Seven cohorts were dosed in sequence (Figure 1). For all study groups, blood samples for PK assessment were obtained predose, up to 12 times daily on day 1, and then at regular intervals throughout the study (see Supplemental Appendix for details). […]
measurement-label: Tmax (h)
Answers are plain numbers, in h.

Which Tmax is reported for this molecule? CCc1nc(-c2ccc3c(c2)CC[C@H]3NC(=O)c2cnn(C)c2)no1 [Aficamten]
1

====

assay-name: Plasma pharmacokinetics in the food-effect cohort
Type: in vivo, human
conditions-used: human, plasma, oral, 10 mg, Fasted, single 10 mg; arithmetic mean ± SD; n = 4; read-out: Vz/F
measurement-label: Vd/F (L)
Answers are plain numbers, in L.

Reported Vd/F, compound CCc1nc(-c2ccc3c(c2)CC[C@H]3NC(=O)c2cnn(C)c2)no1 : ____
346

====

assay-name: Plasma pharmacokinetics after multiple oral doses (MAD cohorts)
Format: in vivo, human
conditions-used: human, plasma, oral, 10 mg, Day 14; 10 mg qd × 14 d; geometric mean (geometric CV%); n = 6; read-out: Cmax,ss
measurement-label: Cmax (ng/mL)
Numbers only, in ng/mL.

Quick check: Cmax of CCc1nc(-c2ccc3c(c2)CC[C@H]3NC(=O)c2cnn(C)c2)no1 [Aficamten] ?
141

====

assay-name: Plasma pharmacokinetics in the food-effect cohort
Format: in vivo, human
conditions-used: human, plasma, oral, 10 mg, Fasted, single 10 mg; arithmetic mean ± SD; n = 4; read-out: t½ (converted)
measurement-label: half-life (h)
One number for each entry, in h.

// returns reported half-life for input CCc1nc(-c2ccc3c(c2)CC[C@H]3NC(=O)c2cnn(C)c2)no1 [Aficamten]
84.4

====

assay-name: Plasma pharmacokinetics after single oral doses (SAD cohorts)
Format: in vivo, human
conditions-used: human, plasma; single oral dose 10 mg; mean ± SD; n = 4; read-out: Vz/F
measurement-label: Vd/F (L)
Numbers only, in L.

Endpoint output: Vd/F of CCc1nc(-c2ccc3c(c2)CC[C@H]3NC(=O)c2cnn(C)c2)no1 [Aficamten] . Value?
362

====

assay-name: Plasma pharmacokinetics in the CYP2D6 poor metabolizer cohort
Type: in vivo, human
conditions-used: human, plasma, oral; CYP2D6 poor metabolizers, single 10 mg; geometric mean (geometric CV%); n = 7
measurement-label: AUC(0-inf) (ng·h/mL)
Numbers only, in ng·h/mL.

Which AUC(0-inf) reading was recorded for the compound CCc1nc(-c2ccc3c(c2)CC[C@H]3NC(=O)c2cnn(C)c2)no1 ?
2970

====

assay-name: Plasma pharmacokinetics after single oral doses (SAD cohorts)
Assay type: in vivo, human
conditions-used: human, plasma; single oral dose 75 mg; median (range); n = 1; read-out: Tmax
measurement-label: Tmax (min)
Numbers only, in min.

So what does the record say about Tmax for CCc1nc(-c2ccc3c(c2)CC[C@H]3NC(=O)c2cnn(C)c2)no1 [Aficamten] ?
30

====

assay-name: Plasma pharmacokinetics after single oral doses (SAD cohorts)
Type: in vivo, human
conditions-used: human, plasma; single oral dose 40 mg; geometric mean (geometric CV%); n = 6
measurement-label: Cmax (ng/mL)
Numbers only, in ng/mL.

Entry CCc1nc(-c2ccc3c(c2)CC[C@H]3NC(=O)c2cnn(C)c2)no1 has what Cmax?
383

====

assay-name: Plasma pharmacokinetics in the food-effect cohort
Assay type: in vivo, human
conditions-used: human, plasma, oral, 10 mg, Fed, single 10 mg; arithmetic mean ± SD; n = 7; read-out: Vz/F
measurement-label: Vd/F (L)
Give bare numbers, in L.

Consider the compound shown here: CCc1nc(-c2ccc3c(c2)CC[C@H]3NC(=O)c2cnn(C)c2)no1 What is its recorded Vd/F?
340

====

assay-name: Plasma pharmacokinetics after multiple oral doses (MAD cohorts)
Assay type: in vivo, human
conditions-used: human, plasma, oral, 5 mg, Day 14; 5 mg qd × 14 d; geometric mean (geometric CV%); n = 6; read-out: Cmax,ss
measurement-label: Cmax (ng/mL)
Answers are plain numbers, in ng/mL.

Value lookup for Cmax; key = CCc1nc(-c2ccc3c(c2)CC[C@H]3NC(=O)c2cnn(C)c2)no1 [Aficamten]
69

====

assay-name: Plasma pharmacokinetics after multiple oral doses (MAD cohorts)
Assay type: in vivo, human
conditions-used: human, plasma, oral, 7.5 mg, Day 17; 7.5 mg qd × 17 d; arithmetic mean ± SD; n = 6; read-out: t½ (converted)
measurement-label: half-life (h)
Answers are plain numbers, in h.

Form field: reported half-life of CCc1nc(-c2ccc3c(c2)CC[C@H]3NC(=O)c2cnn(C)c2)no1
76.9
